assay: mn = molality of the nth substance listed, in mol/kg; conditions: 298.15 K; 101 kPa; Liquid; Capillary tube (Ostwald / Ubbelohde) method; m1 = 1
readout_label: viscosity (mPa·s)

O=C[C@H](O)[C@H](O)[C@H](O)CO [D-ribose] + O    1.215
O=C[C@H](O)[C@@H](O)[C@@H](O)[C@H](O)CO [(+)-galactose] + O    1.381
O=C[C@H](O)[C@@H](O)[C@H](O)[C@H](O)CO [D-glucose] + O    1.385
O=C[C@H](O)[C@@H](O)[C@H](O)CO [D-xylose] + O    1.258

----------
assay: mn = molality of the nth substance listed, in mol/kg; details: 298.15 K; 101 kPa; Liquid; Vibrating tube method; m1 = 0.8
readout_label: mass density (kg/m3)

O=C[C@H](O)[C@@H](O)[C@H](O)CO [D-xylose] + O    1037.53
O=C[C@H](O)[C@@H](O)[C@H](O)[C@H](O)CO [D-glucose] + O    1046.92
O=C[C@H](O)[C@H](O)[C@H](O)CO [D-ribose] + O    1037.77
O=C[C@H](O)[C@@H](O)[C@@H](O)[C@H](O)CO [(+)-galactose] + O    1048.23

----------
assay: mn = molality of the nth substance listed, in mol/kg; details: 298.15 K; 101 kPa; Liquid; Vibrating tube method; m1 = 0.4
readout_label: mass density (kg/m3)

O=C[C@H](O)[C@@H](O)[C@@H](O)[C@H](O)CO [(+)-galactose] + O    1023.81
O=C[C@H](O)[C@H](O)[C@H](O)CO [D-ribose] + O    1018.22
O=C[C@H](O)[C@@H](O)[C@H](O)CO [D-xylose] + O    1018.1
O=C[C@H](O)[C@@H](O)[C@H](O)[C@H](O)CO [D-glucose] + O    1023.12

----------
test: mn = molality of the nth substance listed, in mol/kg; details: 298.15 K; 101 kPa; Liquid; Capillary tube (Ostwald / Ubbelohde) method; m1 = 0.2
readout_label: viscosity (mPa·s)

O=C[C@H](O)[C@@H](O)[C@H](O)[C@H](O)CO [D-glucose] + O    0.974
O=C[C@H](O)[C@@H](O)[C@@H](O)[C@H](O)CO [(+)-galactose] + O    0.97
O=C[C@H](O)[C@H](O)[C@H](O)CO [D-ribose] + O    0.949
O=C[C@H](O)[C@@H](O)[C@H](O)CO [D-xylose] + O    0.953

----------
experiment: mn = molality of the nth substance listed, in mol/kg; settings: 298.15 K; 101 kPa; Liquid; Capillary tube (Ostwald / Ubbelohde) method; m1 = 0.8
readout_label: viscosity (mPa·s)

O=C[C@H](O)[C@H](O)[C@H](O)CO [D-ribose] + O    1.145
O=C[C@H](O)[C@@H](O)[C@H](O)[C@H](O)CO [D-glucose] + O    1.273
O=C[C@H](O)[C@@H](O)[C@@H](O)[C@H](O)CO [(+)-galactose] + O    1.267
O=C[C@H](O)[C@@H](O)[C@H](O)CO [D-xylose] + O    1.175

----------
assay: mn = molality of the nth substance listed, in mol/kg; conditions: 298.15 K; 101 kPa; Liquid; Capillary tube (Ostwald / Ubbelohde) method; m1 = 1.2
readout_label: viscosity (mPa·s)

O=C[C@H](O)[C@@H](O)[C@H](O)[C@H](O)CO [D-glucose] + O    1.501
O=C[C@H](O)[C@@H](O)[C@H](O)CO [D-xylose] + O    1.344
O=C[C@H](O)[C@@H](O)[C@@H](O)[C@H](O)CO [(+)-galactose] + O    1.5
O=C[C@H](O)[C@H](O)[C@H](O)CO [D-ribose] + O    1.278

----------
assay: mn = molality of the nth substance listed, in mol/kg; details: 298.15 K; 101 kPa; Liquid; Vibrating tube method; m1 = 0.2
readout_label: mass density (kg/m3)

O=C[C@H](O)[C@@H](O)[C@H](O)[C@H](O)CO [D-glucose] + O    1010.39
O=C[C@H](O)[C@@H](O)[C@H](O)CO [D-xylose] + O    1007.79
O=C[C@H](O)[C@@H](O)[C@@H](O)[C@H](O)CO [(+)-galactose] + O    1010.73
O=C[C@H](O)[C@H](O)[C@H](O)CO [D-ribose] + O    1007.85

----------
assay: mn = molality of the nth substance listed, in mol/kg; conditions: 298.15 K; 101 kPa; Liquid; Capillary tube (Ostwald / Ubbelohde) method; m1 = 0.4
readout_label: viscosity (mPa·s)

O=C[C@H](O)[C@@H](O)[C@H](O)CO [D-xylose] + O    1.022
O=C[C@H](O)[C@@H](O)[C@H](O)[C@H](O)CO [D-glucose] + O    1.066
O=C[C@H](O)[C@H](O)[C@H](O)CO [D-ribose] + O    1.011
O=C[C@H](O)[C@@H](O)[C@@H](O)[C@H](O)CO [(+)-galactose] + O    1.06

----------
assay: mn = molality of the nth substance listed, in mol/kg; settings: 298.15 K; 101 kPa; Liquid; Capillary tube (Ostwald / Ubbelohde) method; m1 = 0.6
readout_label: viscosity (mPa·s)

O=C[C@H](O)[C@@H](O)[C@H](O)CO [D-xylose] + O    1.096
O=C[C@H](O)[C@H](O)[C@H](O)CO [D-ribose] + O    1.077
O=C[C@H](O)[C@@H](O)[C@H](O)[C@H](O)CO [D-glucose] + O    1.166
O=C[C@H](O)[C@@H](O)[C@@H](O)[C@H](O)CO [(+)-galactose] + O    1.16

----------
experiment: mn = molality of the nth substance listed, in mol/kg; details: 298.15 K; 101 kPa; Liquid; Vibrating tube method; m1 = 1.2
readout_label: mass density (kg/m3)

O=C[C@H](O)[C@@H](O)[C@H](O)CO [D-xylose] + O    1055.41
O=C[C@H](O)[C@H](O)[C@H](O)CO [D-ribose] + O    1055.89
O=C[C@H](O)[C@@H](O)[C@H](O)[C@H](O)CO [D-glucose] + O    1068.59
O=C[C@H](O)[C@@H](O)[C@@H](O)[C@H](O)CO [(+)-galactose] + O    1070.53

----------
assay: mn = molality of the nth substance listed, in mol/kg; details: 298.15 K; 101 kPa; Liquid; Vibrating tube method; m1 = 0.6
readout_label: mass density (kg/m3)

O=C[C@H](O)[C@@H](O)[C@H](O)CO [D-xylose] + O    1028.02
O=C[C@H](O)[C@H](O)[C@H](O)CO [D-ribose] + O    1028.18
O=C[C@H](O)[C@@H](O)[C@@H](O)[C@H](O)CO [(+)-galactose] + O    1036.28
O=C[C@H](O)[C@@H](O)[C@H](O)[C@H](O)CO [D-glucose] + O    1035.32

----------
assay: mn = molality of the nth substance listed, in mol/kg; settings: 298.15 K; 101 kPa; Liquid; Vibrating tube method; m1 = 1
readout_label: mass density (kg/m3)

O=C[C@H](O)[C@@H](O)[C@H](O)[C@H](O)CO [D-glucose] + O    1057.99
O=C[C@H](O)[C@@H](O)[C@H](O)CO [D-xylose] + O    1046.69
O=C[C@H](O)[C@@H](O)[C@@H](O)[C@H](O)CO [(+)-galactose] + O    1059.6
O=C[C@H](O)[C@H](O)[C@H](O)CO [D-ribose] + O    1046.98
